Biological target: HDAC2 (Homo sapiens)
Construct: purchased Reaction Biology Corporation (assay run by the CRO)
Sequence (Q92769 whole entry): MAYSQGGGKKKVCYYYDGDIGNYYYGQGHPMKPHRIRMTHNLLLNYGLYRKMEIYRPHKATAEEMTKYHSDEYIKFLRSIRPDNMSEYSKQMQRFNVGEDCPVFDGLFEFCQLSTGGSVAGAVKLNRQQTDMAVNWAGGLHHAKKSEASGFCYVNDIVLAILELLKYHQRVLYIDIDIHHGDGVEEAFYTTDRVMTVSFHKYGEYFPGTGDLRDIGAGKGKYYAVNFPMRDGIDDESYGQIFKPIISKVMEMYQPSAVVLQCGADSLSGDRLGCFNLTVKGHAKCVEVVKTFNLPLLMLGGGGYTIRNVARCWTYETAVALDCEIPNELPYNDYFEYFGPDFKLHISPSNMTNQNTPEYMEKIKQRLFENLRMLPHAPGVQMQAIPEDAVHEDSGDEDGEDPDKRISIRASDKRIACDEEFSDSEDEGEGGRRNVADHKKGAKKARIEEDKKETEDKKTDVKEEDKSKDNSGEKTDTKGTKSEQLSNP
Assay: HDAC2 inhibition, full IC50 measurement (Reaction Biology; fluorogenic p53 peptide RHKK(Ac)AMC)
Assay type: biochemical
Conditions: Conc. 4.57E-09 M, t2
Peptide text beside a SMILES is read from it.
The following compounds are listed with their measured HDAC2 activity raw data (signal) values.
Please give the numeric answer without any surrounding text.

Please review the entries below; each comes with its answer.
{"columns": ["compound", "studyTarget", "HDAC2 activity raw data (signal)"],
 "data": [
  ["C[C@H](O)[C@H]1NC(=O)[C@H](Cc2c[nH]c3ccccc23)NC(=O)[C@H](CCCCCS)NC(=O)[C@H](CCCCN)NC(=O)[C@@H](CC(=O)O)NC(=O)[C@@H](CCCCN)NC(=O)[C@@H](CO)NC(=O)[C@H](CC(N)=O)NC(=O)[C@H](CC(=O)O)NC1=O [des2.1.0, SHA-Trp-dThr-Asp-Asn-dSer-dLys-dAsp-Lys] (HELM PEPTIDE1{D.N.[dS].[dK].[dD].K.[O=C([C@H](CCCCCS)N[*:1])[*:2]].W.[dT]}$PEPTIDE1,PEPTIDE1,1:R1-9:R2$$$V2.0)", "HDAC2 (Homo sapiens)", 861014],
  ["CSCC[C@H]1NC(=O)[C@@H](CO)NC(=O)[C@H](CC(N)=O)NC(=O)[C@H](CC(=O)O)NC(=O)[C@@H]([C@H](C)O)NC(=O)[C@H](Cc2c[nH]c3ccccc23)NC(=O)[C@H](CCCCCS)NC(=O)[C@H](CCCCN)NC(=O)[C@@H](CC(=O)O)NC1=O [des2.1.1, SHA-Trp-dThr-Asp-Asn-dSer-dMet-dAsp-Lys] (HELM PEPTIDE1{D.N.[dS].[dM].[dD].K.[O=C([C@H](CCCCCS)N[*:1])[*:2]].W.[dT]}$PEPTIDE1,PEPTIDE1,1:R1-9:R2$$$V2.0)", "HDAC2 (Homo sapiens)", 782443]
]}

Turning now to a further record.
Req: // returns reported HDAC2 activity raw data (signal) for input NCCCC[C@H]1NC(=O)[C@H](CCC(N)=O)NC(=O)[C@H](CCC(=O)O)NC(=O)[C@@H]2CCCN2C(=O)[C@H](CC(N)=O)NC(=O)[C@H](CCCCCS)NC(=O)CNC(=O)[C@H](Cc2c[nH]c3ccccc23)NC1=O [des1.1.1, SHA-Asn-Pro-Glu-Gln-dLys-Trp-Gly] (HELM PEPTIDE1{E.Q.[dK].W.G.[O=C([C@H](CCCCCS)N[*:1])[*:2]].N.P}$PEPTIDE1,PEPTIDE1,1:R1-8:R2$$$V2.0)
Resp: 959526

All values here come from paper PMC8185074.
